target_desc: DiscI (Discoidin I, isoform A) (Dictyostelium discoideum, UniProt P02886, S2A)
Sequence (P02886 whole entry S2A, canonical isoform): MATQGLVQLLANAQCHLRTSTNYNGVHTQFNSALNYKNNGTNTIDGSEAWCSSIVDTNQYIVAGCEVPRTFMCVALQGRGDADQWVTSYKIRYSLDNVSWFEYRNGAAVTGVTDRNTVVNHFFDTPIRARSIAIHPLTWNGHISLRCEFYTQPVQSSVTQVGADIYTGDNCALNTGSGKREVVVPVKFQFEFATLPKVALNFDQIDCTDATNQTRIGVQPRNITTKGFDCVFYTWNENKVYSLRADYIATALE
assay_details: Isothermal titration microcalorimetry
Format: binding
condition_context: ITC, 20 mM Tris-HCl pH 7.5, 150 mM NaCl, 25 °C, averaged over two or three experiments
Record form. Attribute: pKd. Fill in for each entry.
Keep in mind that pKd stands for -log10 of concentration in molar terms.

Give the reported pKd for this molecule. CO[C@H]1O[C@H](CO)[C@H](O)[C@H](O)[C@H]1O [αMeGalactoside]
2.08

Indicate the recorded pKd value for this molecule: CC(=O)N[C@H]1C(O)O[C@H](CO)[C@H](O)[C@@H]1O (mixture of isomers) [GalNAc, N-acetylgalactosamine]
3.52

Please give the documented pKd of COC1OC(CO)C(O)C(O)C1O (stereo not drawn) [βMeGalactoside, β–Methyl-galactoside]
2.53

====

target_desc: DiscI (Discoidin I, isoform A) (Dictyostelium discoideum, UniProt P02886, S2A)
assay_details: Isothermal titration microcalorimetry
Format: binding
condition_context: Kd, ITC
Assignment: determine reported Kd for the given compounds.

Answer with reported Kd of CC(=O)N[C@H]1C(O)O[C@H](CO)[C@H](O)[C@@H]1O[C@@H]1O[C@H](CO)[C@H](O)[C@H](O)[C@H]1O (stereo partly drawn)
27 µM

Let me know recorded Kd for CC(=O)N[C@H]1[C@H](O[C@H]2[C@@H](O)[C@@H](CO)OC(O)[C@@H]2O)O[C@H](CO)[C@H](O)[C@@H]1O (stereo partly drawn) , thanks.
~50 µM

Determine from records and report Kd for `O=C[C@H](O)[C@@H](O)[C@@H](O)[C@H](O)CO`
3000 to 4000 µM

====

target_desc: DiscI (Discoidin I, isoform A) (Dictyostelium discoideum, UniProt P02886, S2A)
assay_details: Isothermal titration microcalorimetry
Type: binding
condition_context: ITC, 25 °C
Would you mind telling me the reported -ΔH of each entry?
Use kcal/mol as the unit, but write only the number.

Respond only with -ΔH recorded for CO[C@H]1O[C@H](CO)[C@H](O)[C@H](O)[C@H]1O [αMeGalactoside]
10.1

Query -ΔH for CC(=O)N[C@H]1C(O)O[C@H](CO)[C@H](O)[C@@H]1O (mixture of isomers) [GalNAc, N-acetylgalactosamine]
7.98

State its -ΔH for this compound: COC1OC(CO)C(O)C(O)C1O (stereo not drawn) [βMeGalactoside, β–Methyl-galactoside]
9.63

Fill in -ΔH for record CC(=O)N[C@H]1[C@H](O[C@H]2[C@@H](O)[C@@H](CO)OC(O)[C@@H]2O)O[C@H](CO)[C@H](O)[C@@H]1O (stereo partly shown) [GalNAcβ1-3Gal]
12.7

====

target_desc: DiscI (Discoidin I, isoform A) (Dictyostelium discoideum, UniProt P02886, S2A)
assay_details: Isothermal titration microcalorimetry
Format: binding
condition_context: ITC, 25 °C
recorded_metric: -ΔH
Please append the unit to your numeric answer.

Report -ΔH for CC(=O)N[C@H]1C(O)O[C@H](CO)[C@@H](O[C@@H]2O[C@H](CO)[C@H](O)[C@H](O)[C@H]2O)[C@@H]1O (stereo partly drawn)
9.18 ± 0.526 kcal/mol

Name the recorded -ΔH of the item CC(=O)N[C@H]1C(O)O[C@H](CO)[C@H](O)[C@@H]1O[C@@H]1O[C@H](CO)[C@H](O)[C@H](O)[C@H]1O (stereo partly drawn) in your answer.
10.9 ± 0.263 kcal/mol

Give the reported value of -ΔH for this record: `O=C[C@H](O)[C@@H](O)[C@@H](O)[C@H](O)CO`
7.41 ± 1.77 kcal/mol
